For each of the compounds below, state its accumulation of p27, fold-induction normalized to DMSO.
Test system: p27 levels in LNCaP-S14 cells
test.protocol: p27 immunofluorescence screening assay in LNCaP-S14 cells
measurement.setup: IF assay, 16 hours, SMIP concentration 5
Answer with the number, then the unit.

**Q:** If you can, please state the reported accumulation of p27, fold-induction normalized to DMSO value of CCC(=O)N(Cc1cccc(Cl)c1)c1ccc2[nH]c(C(C)(C)C)cc2c1 [SMIP015] .
**A:** 0.35 fold

**Q:** If you can, please state the reported accumulation of p27, fold-induction normalized to DMSO value of COc1ccc(S(=O)(=O)N(Cc2ccc(Cl)cc2)Cc2ccc3cc[nH]c3c2)cc1 [SMIP003] .
**A:** 0.54 fold

**Q:** If you can, please state the reported accumulation of p27, fold-induction normalized to DMSO value of O=C(Nc1ccccc1)Nc1ccc(SCc2nc(OCC(F)(F)F)cc(OCC(F)(F)F)n2)cc1 [SMIP012] .
**A:** 2.17 fold

**Q:** If you can, please state the reported accumulation of p27, fold-induction normalized to DMSO value of COc1ccc(S(=O)(=O)Nc2cccc3cc(C(=O)NCc4ccc(Cl)cc4)[nH]c23)cc1 [SMIP016] .
**A:** 1.81 fold

**Q:** If you can, please state the reported accumulation of p27, fold-induction normalized to DMSO value of O=C(CSC1=NNC(c2ccccn2)S1)c1cccc(F)c1 (stereo not drawn) [SMIP018] .
**A:** 0.71 fold

**Q:** If you can, please state the reported accumulation of p27, fold-induction normalized to DMSO value of COc1ccc(S(=O)(=O)Nc2ccc3[nH]c(C(C)(C)C)cc3c2)cc1 [SMIP013] .
**A:** −0.10 fold
